Reference source for all entries: the Kinase Knowledgebase extract (Sharma et al. 2016)

target: PIK3CD (UniProt O00329); test: PIK3-delta Kinase Inhibition
Sequence (O00329 whole entry, looked up): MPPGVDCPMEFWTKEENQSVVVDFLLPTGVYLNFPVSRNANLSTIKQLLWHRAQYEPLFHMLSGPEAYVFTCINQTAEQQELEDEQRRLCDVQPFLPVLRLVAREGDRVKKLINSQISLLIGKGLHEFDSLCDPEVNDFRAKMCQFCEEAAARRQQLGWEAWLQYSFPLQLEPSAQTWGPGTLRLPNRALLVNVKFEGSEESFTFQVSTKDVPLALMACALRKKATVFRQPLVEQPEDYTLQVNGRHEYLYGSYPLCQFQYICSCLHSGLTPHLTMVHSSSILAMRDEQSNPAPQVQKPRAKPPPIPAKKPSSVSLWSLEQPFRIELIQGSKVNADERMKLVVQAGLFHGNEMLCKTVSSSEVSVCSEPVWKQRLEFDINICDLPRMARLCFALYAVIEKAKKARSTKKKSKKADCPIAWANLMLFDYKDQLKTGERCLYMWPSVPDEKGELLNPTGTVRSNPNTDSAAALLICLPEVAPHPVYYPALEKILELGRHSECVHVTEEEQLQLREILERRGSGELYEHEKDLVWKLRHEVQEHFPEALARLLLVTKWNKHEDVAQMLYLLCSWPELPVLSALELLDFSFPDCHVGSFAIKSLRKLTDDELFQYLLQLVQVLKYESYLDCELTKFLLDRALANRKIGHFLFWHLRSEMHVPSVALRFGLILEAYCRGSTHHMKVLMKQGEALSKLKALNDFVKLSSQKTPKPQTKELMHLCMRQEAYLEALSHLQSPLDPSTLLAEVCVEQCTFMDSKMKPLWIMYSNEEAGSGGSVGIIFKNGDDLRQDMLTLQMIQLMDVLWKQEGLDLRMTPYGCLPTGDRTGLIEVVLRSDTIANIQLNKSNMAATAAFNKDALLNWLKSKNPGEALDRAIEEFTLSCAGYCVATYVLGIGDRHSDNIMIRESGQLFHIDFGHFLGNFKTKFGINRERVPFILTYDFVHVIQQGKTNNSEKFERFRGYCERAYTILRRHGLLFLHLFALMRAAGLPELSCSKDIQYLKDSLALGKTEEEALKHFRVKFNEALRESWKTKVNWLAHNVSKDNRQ
pIC50: −log10 of the molar value.
The entries below are paired with their reported pIC50.
measured-metric: pIC50

1) O=C(CCl)c1ccc(N2CCOCC2)cc1O ... 5.32
2) COc1ccccc1Nc1cc(C)cn2c(=O)cc(N3CCOCC3)nc12 ... 5.00
3) Cc1cc(Nc2cccc(C)c2C)c2nc(N3CCOCC3)cc(=O)n2c1 ... 5.48
4) Cc1cc(Nc2ccc(C)c(C)c2)c2nc(N3CCOCC3)cc(=O)n2c1 ... 5.30
5) Nc1cc(N2CCOCC2)ccc1[N+](=O)[O-] ... 4.62
6) Cc1cc(Br)c2nc(N3CCOCC3)cc(=O)n2c1 ... 5.07
7) Cc1cc(NCc2ccccc2)c2nc(N3CCOCC3)cc(=O)n2c1 ... 6.82
8) Cc1cc(Nc2ccccc2C)c2nc(N3CCOCC3)cc(=O)n2c1 ... 5.42
9) Cc1ccccc1Oc1cccc2c(=O)cc(N3CCOCC3)[nH]c12 ... 6.20
10) O=c1cc(N2CCOCC2)oc2ccccc12 ... 4.89
11) Cc1cccc(CNc2cc(C)cn3c(=O)cc(N4CCOCC4)nc23)c1 ... 6.41
12) O=c1cc(N2CCOCC2)oc2c(-c3ccccc3)cccc12 ... 5.22
13) Cc1cc(-c2cccc(N)c2)c2nc(N3CCOCC3)cc(=O)n2c1 ... 5.16
14) CC(=O)c1ccc(N2CCOCC2)cc1O ... 5.42
